- Tested on: PPARg:RXRa 270nM:90nM, anti-RXR (NR concentration 270 nM, RXRa partner concentration 90 nM)
- PROTOCOL: PBM binding z-score (relative to random genomic background probes); higher = stronger binding; sequences stand for … in GC…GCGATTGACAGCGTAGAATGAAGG
READOUT KIND: PBM binding z-score

>>> observed("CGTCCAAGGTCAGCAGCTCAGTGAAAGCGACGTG")
2.61
>>> observed("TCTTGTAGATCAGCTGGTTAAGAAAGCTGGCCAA")
1.04
>>> observed("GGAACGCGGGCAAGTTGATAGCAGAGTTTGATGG")
-0.889
>>> observed("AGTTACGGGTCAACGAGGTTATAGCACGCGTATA")
5.55
>>> observed("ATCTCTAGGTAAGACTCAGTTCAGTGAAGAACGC")
0.385

These measurements were taken from the supplement of paper PMC6555819.
